system: Listeria monocytogenes; experiment: Antibacterial activity against clinically isolated Listeria monocytogenes CICC21662 assessed as inhibition of bacterial growth measured after 16 to 24 hrs by broth microdilution method; format: functional; conditions: time 16-24 hrs, read-out: MIC100
measured parameter: MIC

# MIC of O=c1cc(O)c2ccccc2o1 [4-HYDROXYCOUMARINS] = > 256 µg/mL

# MIC of `CCN(CC)CCCCCCCCCCCCOc1cc(=O)oc2ccccc12` = 1 µg/mL

# MIC of `CCN(CC)CCCCCCCCCCCCOc1ccc2ccc(=O)oc2c1` = 2 µg/mL

# MIC of O=c1ccc2ccc(O)cc2o1 [UMBELLIFERONE] = > 256 µg/mL

# MIC of `CCCCN(CCCC)CCCCCCCCCCCCOc1cc(=O)oc2ccccc12` = 1 µg/mL

# MIC of CN[C@H](CC(C)C)C(=O)N[C@H]1C(=O)N[C@@H](CC(N)=O)C(=O)N[C@H]2C(=O)N[C@H]3C(=O)N[C@H](C(=O)N[C@H](C(=O)O)c4cc(O)cc(O)c4-c4cc3ccc4O)[C@H](O)c3ccc(c(Cl)c3)Oc3cc2cc(c3O[C@@H]2O[C@H](CO)[C@@H](O)[C@H](O)[C@H]2O[C@H]2C[C@](C)(N)[C@H](O)[C@H](C)O2)Oc2ccc(cc2Cl)[C@H]1O [VANCOMYCIN] = 0.5 µg/mL
